molecular target: mu receptor (Rattus norvegicus); construct: rat whole brain minus cerebellum for mu was homogenized; from tissue; host or cells: brain of male Sprague Dawley rats, whole brain minus cerebellum, homogenate fraction; test: opioid receptor binding assay, [3H] NAL (tritiated naloxone), mu receptor; set-up: species or system rat (Male Sprague Dawley), brain minus cerebellum
Sequence (P33535 whole entry): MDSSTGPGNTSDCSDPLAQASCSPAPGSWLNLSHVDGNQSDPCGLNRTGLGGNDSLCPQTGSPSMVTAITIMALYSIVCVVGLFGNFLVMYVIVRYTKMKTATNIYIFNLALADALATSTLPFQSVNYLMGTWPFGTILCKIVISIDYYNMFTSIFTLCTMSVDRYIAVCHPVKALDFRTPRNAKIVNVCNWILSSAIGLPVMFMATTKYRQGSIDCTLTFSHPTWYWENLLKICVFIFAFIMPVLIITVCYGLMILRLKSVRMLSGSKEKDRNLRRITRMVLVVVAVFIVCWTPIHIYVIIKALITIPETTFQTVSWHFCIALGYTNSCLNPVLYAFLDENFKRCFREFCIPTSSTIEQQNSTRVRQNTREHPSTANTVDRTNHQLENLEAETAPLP
pKi: −log10 of the molar value. Counter-ions that a name gives are not always drawn.
Record Criterion met whenever pKi is at 9 or higher; record Criterion not met when lower.

| molecule | group label |
| --- | --- |
| C[C@H]1CN(CC(CC2CCCCC2)C(=O)NCC(=O)O)CC[C@@]1(C)c1cccc(O)c1 (relative stereo) [Example 30, monohydrate] | Criterion met |
| CCOC(=O)CNC(=O)CNC(=O)C(Cc1ccccc1)CN1CC[C@@](C)(c2cccc(O)c2)[C@@H](C)C1 (relative stereo) [Example 67, monohydrochloride] | Criterion met |
| C[C@H]1CN(CC(Cc2ccccc2)C(=O)NCCC(=O)O)CC[C@@]1(C)c1cccc(O)c1 (stereo partly drawn) [Example 57, monohydrate] | Criterion met |

Now let's try a different one.
Can C[C@H]1CN(CC(Cc2ccccc2)C(=O)O)CC[C@@]1(C)c1cccc(O)c1 (relative stereo) [Example 4B, monohydrate] be said to have pKi at or above 9?
Criterion not met
